Values from patent US20200399364A1

- target: T1, human claudin 18.2 (CLDN18.2) (human)
- T1 construct: also called claudin 18 variant 2; claudin-18a2.1
- T1 sequence (chain, as listed by the source limits assumed): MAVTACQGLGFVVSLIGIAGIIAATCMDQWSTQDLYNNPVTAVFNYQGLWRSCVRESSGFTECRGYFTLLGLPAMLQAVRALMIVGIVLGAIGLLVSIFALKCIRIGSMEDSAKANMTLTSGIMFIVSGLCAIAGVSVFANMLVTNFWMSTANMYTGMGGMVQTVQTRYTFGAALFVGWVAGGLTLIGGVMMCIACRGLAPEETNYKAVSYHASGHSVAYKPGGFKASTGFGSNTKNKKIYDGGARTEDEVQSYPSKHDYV
- protocolNotes: FACS on HEK293-CLDN18.2 stable pool, FITC-based detection
measuredAttribute: pEC50
In textbook form, pEC50 equals minus log to base ten of the concentration in mol/L.

query: Entry under review: humanized anti-CLDN18.2 mAb 5-E22-H3L2 (antibody, V domains shown, Humanized VH and VL fused to the constant regions of human IgG1 heavy chain and kappa light chain) VH: QVQLVQSGAEVKKPGASVKVSCKASGYTITDNYMHWVRQAPGQGLEWIGEIYPGSGNTYYAEKFKNRATLTADKSISTAYMELSRLRSDDTAVYFCARGFPYYAMDYWGQGTLVTVSS VL: EIVLTQSPATLSLSPGERATLSCHARQNINVWLSWYQQKPGQAPRLLIYKASNLHTGIPARFSGSGSGTDFTLTISSLEPEDFAVYYCQQGQNYPLTFGGGTKVEIK . Reported pEC50?
result: 7.71

query: humanized anti-CLDN18.2 mAb 5-E22-H3L3 (antibody, V domains shown, Humanized VH and VL fused to the constant regions of human IgG1 heavy chain and kappa light chain) VH: QVQLVQSGAEVKKPGASVKVSCKASGYTITDNYMHWVRQAPGQGLEWIGEIYPGSGNTYYAEKFKNRATLTADKSISTAYMELSRLRSDDTAVYFCARGFPYYAMDYWGQGTLVTVSS VL: DIVMTQSPLSLPVTPGEPASISCHARQNINVWLSWYLQKPGQSPQLLIYKASNLHTGVPDRFSGSGSGTDFTLKISRVEAEDVGVYYCQQGQNYPLTFGQGTKVEIK , same question.
result: 7.83

--- query ---
query: Entry under review: humanized anti-CLDN18.2 mAb 5-E22-H3L1 (antibody, V domains shown, Humanized VH and VL fused to the constant regions of human IgG1 heavy chain and kappa light chain) VH: QVQLVQSGAEVKKPGASVKVSCKASGYTITDNYMHWVRQAPGQGLEWIGEIYPGSGNTYYAEKFKNRATLTADKSISTAYMELSRLRSDDTAVYFCARGFPYYAMDYWGQGTLVTVSS VL: EIVMTQSPATLSLSPGERATLSCHARQNINVWLSWYQQKPGQAPRLLIYKASNLHTGVPARFSGSGSGTDFTLTISSLEPEDFAVYYCQQGQNYPLTFGGGTKVEIK . Reported pEC50?
result: 7.92
